I'd appreciate it if you could supply pIC50 values for the items below.
- target.desc: CDK-2 (Homo sapiens)
- assay.procedure: Fluorescence polarization displacement assay (inhibitory effectiveness toward CDK-2)
- Format: binding
- condition.set: inhibitory effectiveness toward CDK-2; read-out: IC50
- Experimental: Fluorescence Polarization Assay Binding assays were performed in a 384 well Costar NBS coated plate. […] The concentration of BMS-Alexa Fluor647 was 50 nM. Serial dilutions of compounds were added to 12 wells. The final buffer concentration was 10 mM Hepes, pH 7.5, 150 mM NaCl, and 1 mM DTT. Samples were incubated at room temperature for 15 minutes and then read in an Analyst HT instrument using an excitation and emission wavelength of 580 and 680 nm, respectively.
pIC50: −log10 of the molar value.

Which measured pIC50 belongs to COC[C@H](Cc1ccc(O)cc1)NC(=O)c1cc(C(=O)O)c2cc(COc3ccc(Cl)cc3)ccc2n1 , tested on CDK-2 (Homo sapiens)? < 4.40

GET /values?readout=pIC50&system=CDK-2 (Homo sapiens)&item= CCCCCC#Cc1ccc2nc(C(=O)N[C@H](COC)Cc3ccc(O)cc3)cc(C(=O)O)c2c1 > 6.00

Identify the measured pIC50 of COC(=O)[C@H](Cc1ccc(O)cc1)NC(=O)c1cc(C(=O)O)c2cc(-c3cccc(O)c3)ccc2n1 for CDK-2 (Homo sapiens). 4.40 to 6.00

Form field - read-out: pIC50; system: CDK-2 (Homo sapiens); submitted item: CC(C)(C)S(=O)(=O)NCc1cc(C(=O)N[C@H](CN)Cc2ccc(O)cc2)nc2ccc(C#Cc3ccccn3)cc12 < 4.40

Item: COC[C@H](Cc1ccc(O)cc1)NC(=O)c1cc(C(=O)O)c2cc(CCCCO)ccc2n1 Test system: CDK-2 (Homo sapiens) Read-out: pIC50 Value: ? < 4.40

Form field - read-out: pIC50; system: CDK-2 (Homo sapiens); submitted item: COC(=O)[C@H](Cc1ccc(O)cc1)NC(=O)c1cc(C(=O)O)c2cc(-c3ccc(OC(F)(F)F)cc3)ccc2n1 > 6.00

Query the reported pIC50 for CDK-2 (Homo sapiens); item: COC[C@H](Cc1ccc(O)cc1)NCc1cc(C(=O)OCCN(C)C)c2cc(-c3cccc(C(F)(F)F)c3)ccc2n1 < 4.40
